test system: T-Rex 293 cell line SC3 cells lacking increased expression of androgen receptor protein; experiment: Cellular growth inhibition assay, T-Rex 293 SC3 cells without doxycycline (CellTiter-Glo, 72 hours); format: cell-based; settings: 72 h, T-Rex 293 cell line SC3 cells not exposed to doxycycline (lacking increased androgen receptor expression)
Measurement type: GI50

Examples with their reported GI50 follow.
* Cc1sc2c(c1C)C(c1ccc(OC[C@@H]3CC[C@@]4(CCCN(c5ccc(C(=O)N[C@H]6CC[C@H](Oc7ccc(C#N)c(Cl)c7)CC6)nn5)C4)C3)nc1)=N[C@@H](Cc1ncco1)c1nnc(C)n1-2 | > 3000 nM
* Cc1sc2c(c1C)C(c1ccc(N3CCC[C@H](C(=O)N4CCC[C@H](c5ccc(C(=O)N[C@H]6CC[C@H](Oc7ccc(C#N)c(Cl)c7)CC6)nn5)C4)C3)cc1)=N[C@H](Cc1ncco1)c1nnc(C)n1-2 | > 3000 nM
* Cc1sc2c(c1C)C(c1ccc([C@H]3C[C@H](C[C@H]4CCCN(c5ccc(C(=O)N[C@H]6CC[C@H](Oc7ccc(C#N)c(Cl)c7)CC6)nn5)C4)C3)cc1)=N[C@@H](Cc1ncco1)c1nnc(C)n1-2 | > 3000 nM

Can you give me GI50 for all of these, one by one?
1. Cc1sc2c(c1C)C(c1ccc(COC3CCC4(CCCN(c5ccc(C(=O)N[C@H]6CC[C@H](Oc7ccc(C#N)c(Cl)c7)CC6)nn5)C4)C3)cc1)=N[C@@H](C)c1nnc(C)n1-2 (some centres unmarked)
2. Cc1sc2c(c1C)C(c1ccc(N3CC(C4CC5(C4)CN(c4ccc(C(=O)N[C@H]6CC[C@H](Oc7ccc(C#N)c(Cl)c7)CC6)nn4)C5)C3)cc1)=N[C@@H](Cc1ncco1)c1nnc(C)n1-2
3. CC[C@@H]1N=C(c2ccc(N3CCC4(CCCN(c5ccc(C(=O)N[C@H]6CC[C@H](Oc7ccc(C#N)c(Cl)c7)CC6)nn5)C4)CC3)cc2)c2c(sc(C)c2C)-n2c(C)nnc21
4. Cc1sc2c(c1C)C(c1ccc(N3CC4(CC(Cc5ccc(C(=O)N[C@H]6CC[C@H](Oc7ccc(C#N)c(Cl)c7)CC6)nn5)C4)C3)cc1)=N[C@@H](Cc1ncco1)c1nnc(C)n1-2
5. Cc1sc2c(c1C)C(c1ccc(CC(=O)NCCc3ccc(C(=O)N[C@H]4CC[C@H](Oc5ccc(C#N)c(Cl)c5)CC4)nn3)cc1)=N[C@@H](Cc1ncco1)c1nnc(C)n1-2

Return:
1: < 500 nM; 2: < 500 nM; 3: < 500 nM; 4: > 3000 nM; 5: 500 to 1500 nM
